- protocol-description: qHTS assay for re-activators of p53 using a Luc reporter: Hit Validation; further: nearly all actives have a fitted effect of over 75% in size
- condition-context: p53-responsive luciferase reporter cells, luminescence, H1299 line expressing heat-sensitive Ala138Val p53; series mostly up to 46.1 µM
Records with an inconclusive call do not appear. The source made the active and inactive calls. The call rests on the fitted dose curve; in most records, active means well fitted activation curve with a large enough effect; inconclusive means small, poorly fitted or top-dose-only effect; inactive means no such curve, though single readings can be large or run the other way.
Classes used: Yes = active, No = inactive

[
  {
    "compound": "Cc1sc(NC(=O)c2ccc(Cl)s2)c(C(N)=O)c1C",
    "assigned-category": "Yes"
  },
  {
    "compound": "N#CC1=C(N)N2C(=C(C#N)C13CCCCC3)SC1CCCCC12O (configuration not stated)",
    "assigned-category": "No"
  },
  {
    "compound": "Cc1cc(/C=N/Nc2ncnc(N)c2[N+](=O)[O-])c(C)n1-c1ccccc1",
    "assigned-category": "Yes"
  },
  {
    "compound": "CC(C)N1C(=O)CN(C2CCCCCC2)C(=O)C1c1ccccc1F (configuration not stated)",
    "assigned-category": "No"
  },
  {
    "compound": "O=C(CCCN1C(=O)/C(=C/c2ccco2)SC1=S)Nc1ccccc1",
    "assigned-category": "No"
  },
  {
    "compound": "Cc1ccc(S(=O)(=O)NCC(=O)N2CCc3ccccc3C2)cc1",
    "assigned-category": "No"
  },
  {
    "compound": "COc1ccc(N2CCN(C(=O)COC(=O)c3ccc(OC(F)F)cc3)CC2)cc1",
    "assigned-category": "No"
  },
  {
    "compound": "COc1ccc([N+](=O)[O-])cc1NC(=O)CSCc1ccc(Br)cc1",
    "assigned-category": "No"
  },
  {
    "compound": "O=C(/C=C/Nc1ccccc1C(=O)O)c1cccs1",
    "assigned-category": "No"
  },
  {
    "compound": "Cc1c(/C(O)=C2/C(=O)C(=O)N(CCN3CCOCC3)C2c2cccs2)cnn1-c1ccccc1 (configuration not stated)",
    "assigned-category": "Yes"
  },
  {
    "compound": "NC(=O)c1ccc(-n2c(CCC(=O)O)ccc2-c2cccs2)cc1",
    "assigned-category": "No"
  },
  {
    "compound": "Cc1cc(Oc2ccccc2)nc(-c2ccccc2O)n1",
    "assigned-category": "No"
  },
  {
    "compound": "O=C(NC12CC3CC(CC(C3)C1)C2)c1ccc(-c2cccc(Cl)c2)o1",
    "assigned-category": "Yes"
  },
  {
    "compound": "Cc1ccc2nc(-c3ccc(NC(=O)CN4C(=O)c5ccccc5C4=O)cc3)sc2c1",
    "assigned-category": "Yes"
  },
  {
    "compound": "CCN1CCc2c(sc(NC(=O)c3ccc(S(=O)(=O)N4CCCC4)cc3)c2C(=O)NC)C1",
    "assigned-category": "No"
  },
  {
    "compound": "Cc1ccccc1S(=O)(=O)Nc1nc2ccccc2nc1N1CCc2ccccc2C1",
    "assigned-category": "No"
  },
  {
    "compound": "CC(C)(C)c1nnc(SCC(=O)c2ccccc2)n(N)c1=O",
    "assigned-category": "No"
  },
  {
    "compound": "CCN(CC(=O)NCc1cccs1)c1ccc(S(=O)(=O)N2CCOCC2)cn1",
    "assigned-category": "No"
  },
  {
    "compound": "O=C(NC1CCCCC1)c1ccc(-c2ccccc2F)o1",
    "assigned-category": "Yes"
  },
  {
    "compound": "Clc1ccc(-c2cn3cc(Br)ccc3n2)cc1Cl",
    "assigned-category": "Yes"
  },
  {
    "compound": "Cc1cc(C(F)(F)F)c(C#N)c(SCC(=O)Nc2nc3ccccc3s2)n1",
    "assigned-category": "Yes"
  },
  {
    "compound": "Cc1ccc(C(=O)Nc2nnc(SCC(=O)N3CCCc4ccccc43)s2)cc1",
    "assigned-category": "No"
  }
]
